Reference for the values: patent US20200231654A1

Below, each entry is listed alongside its reported IC50.
Target: active hMMP-9(cat)_His6 (UniProt P14780 107-449)
Sequence (P14780 107-449): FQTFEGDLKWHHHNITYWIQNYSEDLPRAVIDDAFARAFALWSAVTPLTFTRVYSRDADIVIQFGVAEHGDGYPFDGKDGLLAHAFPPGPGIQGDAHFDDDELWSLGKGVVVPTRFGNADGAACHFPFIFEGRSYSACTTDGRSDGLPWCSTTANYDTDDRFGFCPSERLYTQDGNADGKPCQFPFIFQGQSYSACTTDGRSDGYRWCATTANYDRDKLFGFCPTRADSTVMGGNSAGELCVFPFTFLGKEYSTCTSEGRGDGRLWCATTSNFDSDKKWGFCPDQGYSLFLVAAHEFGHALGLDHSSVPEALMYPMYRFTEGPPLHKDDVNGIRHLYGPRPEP
Experiment: enzyme inhibition; substrate gelatin
The figure you give is taken to be in nM; do not add the unit.

>  <binder>
active MMP-9-binding peptide M91004 (designed binder) GSGMKETAAAKFERQHMDSPDLGTDDDDKAMADIGSANSDPQFGLFSKYRTPNCRQRKGPSCQMAFQPVCGSDMSTYANECTLCMKIREGGHNIKIIRNGPCGASAAA

>  <IC50 / nM>
7.6

$$$$

Item active MMP-9-binding peptide M91014 (designed binder) GSGMKETAAAKFERQHMDSPDLGTDDDDKAMADIGSANSDPQFGLFSKYRTPNCVMYKYAQCSHKYKPVCGSDMSTYANECTLCMKIREGGHNIKIIRNGPCGASAAA has what recorded IC50?
3

Item active MMP-9-binding peptide M91010 (designed binder) GSGMKETAAAKFERQHMDSPDLGTDDDDKAMADIGSANSDPQFGLFSKYRTPNCRKVGEPACQMSFNPVCGSDMSTYANECTLCMKIREGGHNIKIIRNGPCGASAAA has what recorded IC50?
5.8
